# testedTarget: T1, soluble human BLyS (human, UniProt Q9Y275 134-285)
# T1 construct: also called hBLyS; human BAFF (BLyS)
# methodSummary: Biacore T100, binder captured by anti-human Fc, BLyS injected, 1:1 model
measure: koff (s⁻¹)
Response body: numeric value in s⁻¹, unit text excluded.

What value of koff has been reported for the following binder? belimumab (antibody, V domains shown) VH: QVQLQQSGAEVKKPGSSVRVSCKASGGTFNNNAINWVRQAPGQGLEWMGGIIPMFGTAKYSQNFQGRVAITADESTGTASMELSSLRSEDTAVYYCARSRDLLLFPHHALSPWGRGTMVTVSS VL: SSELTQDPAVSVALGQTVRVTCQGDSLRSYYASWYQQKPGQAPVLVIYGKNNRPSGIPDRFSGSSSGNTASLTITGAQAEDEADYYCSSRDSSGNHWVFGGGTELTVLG 8.55e-05

Source listed as patent US20170101466A1.
